Source: ChEMBL document CHEMBL4813971

Test system: MCF7
experiment.description: Antiproliferative activity against human MCF7 cells incubated for 2 days by MTT assay
condition.label: MCF7, 48 h
measure: IC50 (µM)

Cc1ccc(NC(=O)Nc2cc3cc(Br)ccc3o2)cc1S(N)(=O)=O = 13.8
Cc1ccc(NC(=O)Nc2oc3ccccc3c2C)cc1S(N)(=O)=O = 6.45

---

system.name: UniProtKB Q16790
experiment.description: Inhibition of human CA9 by stopped- flow CO2 hydration assay
# label = bin(measured Ki), where bins are lower segment: < 0.01 µM; middle segment: ≥ 0.01 µM and < 0.04 µM; upper segment: ≥ 0.04 µM

O=C(Nc1ccc(S(=O)(=O)Nc2nccs2)cc1)Nc1cc2cc(Br)ccc2o1 = upper segment
Cc1c(NC(=O)Nc2ccc(S(=O)(=O)Nc3nccs3)cc2)oc2ccccc12 = upper segment
Cc1c(NC(=O)NCCc2ccc(S(N)(=O)=O)cc2)oc2ccccc12 = lower segment
Cc1c(NC(=O)Nc2ccc(S(N)(=O)=O)cc2)oc2ccccc12 = middle segment
Cc1c(NC(=O)Nc2cc(Cl)c(S(N)(=O)=O)cc2S(N)(=O)=O)oc2ccccc12 = upper segment
Cc1c(NC(=O)Oc2ccc(S(N)(=O)=O)cc2)oc2ccccc12 = middle segment
Cc1c(NC(=O)NNC(=O)c2ccc(S(N)(=O)=O)cc2)oc2ccccc12 = middle segment
Cc1ccc(NC(=O)Nc2oc3ccccc3c2C)cc1S(N)(=O)=O = lower segment
NS(=O)(=O)c1ccccc1NC(=O)Nc1cc2cc(Br)ccc2o1 = middle segment
NS(=O)(=O)c1cc(S(N)(=O)=O)c(NC(=O)Nc2cc3cc(Br)ccc3o2)cc1Cl = middle segment

---

Recorded pIC50 for the following compounds
System: MDA-MB-231
experiment.description: Antiproliferative activity against human MDA-MB-231 cells incubated for 2 days by MTT assay
condition.label: MDA-MB-231, 48 h
pIC50: −log10 of the molar value.
measure: pIC50

Cc1ccc(NC(=O)Nc2oc3ccccc3c2C)cc1S(N)(=O)=O = 5.20
Cc1ccc(NC(=O)Nc2cc3cc(Br)ccc3o2)cc1S(N)(=O)=O = 4.85

---

system.name: Carbonic anhydrase 9 (Homo sapiens)
experiment.description: Inhibition of human CA9 by stopped- flow CO2 hydration assay
Kindly apply the following: rule met if Ki is less than 0.03 µM, rule not met in every other case.

NS(=O)(=O)c1cccc(NC(=O)Nc2cc3cc(Br)ccc3o2)c1 = rule met
Cc1c(NC(=O)Nc2cccc(S(N)(=O)=O)c2)oc2ccccc12 = rule met
Cc1noc(NS(=O)(=O)c2ccc(NC(=O)Nc3cc4cc(Br)ccc4o3)cc2)c1C = rule not met
Cc1c(NC(=O)Nc2ccccc2S(N)(=O)=O)oc2ccccc12 = rule not met
NS(=O)(=O)c1ccc(C(=O)NNC(=O)Nc2cc3cc(Br)ccc3o2)cc1 = rule met
Cc1noc(NS(=O)(=O)c2ccc(NC(=O)Nc3oc4ccccc4c3C)cc2)c1C = rule not met
NS(=O)(=O)c1ccc(NC(=O)Nc2cc3cc(Br)ccc3o2)cc1 = rule met
Cc1ccc(NC(=O)Nc2cc3cc(Br)ccc3o2)cc1S(N)(=O)=O = rule met

---

Recorded pKi for the following compounds
system.name: Carbonic anhydrase 9 (Homo sapiens)
experiment.description: Inhibition of human CA9 preincubated for 15 mins by phenol red dye based stopped flow CO2 hydration assay
pKi: −log10 of the molar value.
measure: pKi

C/C(=N\Nc1ccc(S(N)(=O)=O)cc1)c1cc2cc(Br)ccc2o1 = 7.56
Cc1ccc(S(=O)(=O)C/C(=N\Nc2ccc(S(N)(=O)=O)cc2)c2cc3cc(Br)ccc3o2)cc1 = 8.00
